B1: CLuc-FGF14 [human] / CD4-Nav1.6 C-tail-NLuc [human] (parent)
chain 1: MVKPVPLFRRTDFKLLLCNHKDLFFLRVSKLLDCFSPKSMWFLWNIFSKGTHMLQCLCGKSLKKNKNPTDPQLKGIVTRLYCRQGYYLQMHPDGALDGTKDDSTNSTLFNLIPVGLRVVAIQGVKTGLYIAMNGEGYLYPSELFTPECKFKESVFENYYVIYSSMLYRQQESGRAWFLGLNKEGQAMKGNRVKKTKPAAHFLPKPLEVAMYREPSLHDVGETVPKPGVTPSKSTSASAIMNGGKPVNKSKTT
chain 2: IVVNMYIAIILENFSVATEESADPLSEDDFETFYEIWEKFDPDATQFIEYCKLADFADALEHPLRVPKPNTIELIAMDLPMVSGDRIHCLDILFAFTKRVLGDSGELDILRQQMEERFVASNPSKVSYEPITTTLRRKQEEVSAVVLQRAYRGHLARRGFICKKTTSNKLENGGTHREKKESTPSTASLPSYDSVTKPEKEKQQRAEEGRRERAKRQKEVRESKC

# Variants of: B1
# ASSAY_COMMENT: split-luciferase complementation assay (LCA) in HEK293 cells
# CONDITION_DESCRIPTION: with CD4-Nav1.6 C-tail-NLuc [human]; FLPK peptide 50 µM present; DMSO vehicle control of the same pair = 100; read off a plot
Consider the following variants; for each one, report its screen value (% Luminescence (RLU)).

Example entries and their recorded answers appear below.
MUTANT_DESIGNATION	screen value (% Luminescence (RLU))
chain 1 Y158A	87
chain 1 Y158N V160N	100
chain 1 Y158A V160A	99

Shifting focus to the variant that follows.
Input line: Fill blank: measured screen value (% Luminescence (RLU)) of the variant chain 1 V160A is ____.
Output line: 91
